test system: HL-60(TB) leukemia; assay: NCI tumour cell line growth inhibition, 48 h
Rule: TGI under 5 µM gives 0.0, otherwise 1.0.

Worked examples, 5 molecules total:
molecule	group
N#Cc1c(C#N)c(-c2cccc([N+](=O)[O-])c2)n(-c2ccccc2)c1N	1.0
CC(C)=CCNc1ncnc2c1ncn2CCC(=O)OC(C)(C)C	1.0
Cc1[nH]c2c(C)ccc(C)c2c1CC(=O)O	1.0
C=C(Cl)C(C)(Cl)CCC(Cl)C(C)(C)Cl (stereo not given)	1.0
CC(=O)CC(=O)N(CCN(C(=O)CC(C)=O)c1ccccc1)c1ccccc1	1.0

Proceed to the following item.
Check the entry COC(=O)C1([C@@H]2C[C@@H](O)[C@]3(C)CC/C=C(\C)CCC[C@H](C)[C@H](O)[C@@H]2O3)CC1 : does TGI equal or exceed 5 µM? 1.0

----------
tested on: U251 CNS
For each of the molecules below, state its GI50.

Please review the entries below; each comes with its answer.
molecule	subjectOfTest	readoutType	result
CCN1C(=O)N(CC)C2C1NN=c1s/c(=C3\C(=O)N(CCC(C)C)c4ccccc43)c(=O)n12 (centres undefined)	U251 CNS	GI50	1.88 µM
COc1ccc(C(=O)/C=C/c2cc3ccccc3[nH]c2=O)cc1	U251 CNS	GI50	17.5 µM
CC[O-].CC[O-].[O-]c1ccccc1C=Nc1ccccc1.[O-]c1ccccc1C=Nc1ccccc1.[Ti+4]	U251 CNS	GI50	> 100 µM
CN1CCN(C(=O)c2ccc(NC(=O)Nc3ccc(N(C)c4ccnc(Nc5ccc(CS(C)(=O)=O)cc5)n4)cc3)cc2)CC1	U251 CNS	GI50	6.26 µM
COc1cc(N2CCC(N3CCN(C)CC3)CC2)ccc1Nc1ncc(Cl)c(Nc2ccccc2P(C)(C)=O)n1	U251 CNS	GI50	3.79 µM
O=c1oc2ccc(Cl)cc2c(=O)n1-c1ccc(Cl)cc1F	U251 CNS	GI50	0.566 µM
COc1ccc(-c2cc(-c3ccc(Nc4nc(Nc5ccc(Cl)cc5)nc(Nc5ccc(Cl)cc5)n4)cc3)no2)cc1	U251 CNS	GI50	11.2 µM
CCN(Cc1ccc(F)cc1)c1ccc(CO)c(Cl)c1	U251 CNS	GI50	0.654 µM
COc1ccc(C(=S)c2cc(OC)c(OC)c(OC)c2)cc1OC(=O)CCl	U251 CNS	GI50	0.0341 µM
O=C1C2CC3C(CC2C(=O)[N]1[Sn]([c]1ccccc1)([c]1ccccc1)[c]1ccccc1)C1(Cl)C(Cl)=C(Cl)C3(Cl)C1(Cl)Cl (centres undefined)	U251 CNS	GI50	0.119 µM

Provide GI50 values for the following items, in order.
1. CC(=O)O[C@H](C[C@H](C(C)C)N(C)C(=O)[C@@H](NC(=O)[C@H]1CCCCN1C)C(C)C)c1nc(C(=O)N[C@@H](Cc2ccccc2)C[C@H](C)C(=O)O)c(C)s1
2. COc1ccc(OC)c(/C=C/c2nnc(Nc3ccc(Cl)cc3)o2)c1
3. C[C@H]1CCC/C=C/[C@@H]2C[C@H](O)C[C@H]2[C@H](O)[C@H](S(=O)c2ccc(O)cc2)CC(=O)O1 (some centres undefined)
4. Cc1ccc(-c2csc(N(C(=O)N3CCN(c4cc5c(cc4F)c(=O)c(C(=O)O)cn5C4CC4)CC3)c3ccccc3)n2)cc1

1: < 0.0025 µM; 2: 3.81 µM; 3: 0.0403 µM; 4: 0.368 µM

----------
For each of the compounds below, state its TGI.
tested on: SK-MEL-2 melanoma; test: NCI tumour cell line growth inhibition, 48 h

compound	TGI
O=C(O)C(=O)Cc1ccc2c(c1)OCO2	> 100 µM

Provide TGI values for the following items, in order.
1. Cc1cc(N(CCOS(C)(=O)=O)CCOS(C)(=O)=O)ccc1C=Nc1ccc(-c2csc(-c3ccccc3)n2)c(Cl)c1
2. CCCCCCCC[N+](C)(C)Cc1ccc(C[N+](C)(C)CCCCCCCC)cc1
3. O=C(NNC(=S)Nc1ccccc1)C12CC3CC(CC(C3)C1)C2
4. c1cncc(C2c3[nH]c4ccccc4c3CCN2CCCN2CCCCC2)c1 (stereo unspecified)
5. CC[C@H](C)c1occ2c(O)c(C(=O)O)c(=O)cc-2c1C
6. NCC(=O)C(O)C(O)C(O)CO (stereo unspecified)
7. c1ccc(COCC23CCN(Cc4ccccc4)C(CC(OCc4ccccc4)C2)S3)cc1 (stereo unspecified)
8. CCOC(=O)/C(=C/c1ccc(OC)c(OC)c1)C(=O)c1ccccc1

1: 50.5 µM; 2: > 100 µM; 3: > 86.9 µM; 4: > 100 µM; 5: 34 µM; 6: > 100 µM; 7: > 100 µM; 8: > 100 µM

Provide TGI values for the following items, in order.
1. Cc1ccc(-c2csc(N(C(=O)N3CCN(c4cc5c(cc4F)c(=O)c(C(=O)O)cn5C4CC4)CC3)c3ccccc3)n2)cc1
2. CC1=CC(C)C(C)N(CCNC(=O)Nc2ccccc2)c2ccccc21 (stereo unspecified)

1: 1.75 µM; 2: 56.2 µM

----------
test system: UACC-257 melanoma; assay: NCI tumour cell line growth inhibition, 48 h
readoutType: TGI

Please review the entries below; each comes with its answer.
compound	TGI
O=C(O)c1ccc(Nc2ccnc3cc(Cl)ccc23)cc1O	> 100 µM
CC(C#N)c1cn(S(=O)(=O)c2ccccc2)c2ccccc12 (stereo unspecified)	> 100 µM
COC(=O)C1=CC(O)CCC1c1ccc(OC)cc1 (stereo unspecified)	> 100 µM

Provide TGI values for the following items, in order.
1. CC1(C)CCC(=O)c2c(O)ccc(O)c21
2. O=c1c(O)c(-c2ccc(O)c(O)c2)oc2cc(O)ccc12
3. Cc1cc(Cl)nc(NC(=O)CSc2ccc(Cl)cc2)n1

1: 81.9 µM; 2: > 67.7 µM; 3: > 100 µM

----------
For each of the molecules below, state its TGI.
system: HL-60(TB) leukemia; test: NCI tumour cell line growth inhibition, 48 h
Answers are plain numbers, in µM.

Please review the entries below; each comes with its answer.
molecule	readoutType	numericResult
COc1ccccc1C1C2=C(COC2=O)OC(C)(C)Oc2cc3c(cc21)OCO3 (stereo not given)	TGI	7.8
COC(C)(C)C(O)C(O)C[C@H](C)C1CC=C2C1(C)CCC1[C@@]3(C)CCC(OC(C)=O)C(C)(C)C3CC(OC3OC(COC(C)=O)C(O)C(O)C3O)[C@@]21C (stereo not given in full)	TGI	5.54

The record that follows has no TGI shown yet.
The molecule listed as CCC1CCc2nc3sc(C(=O)Nc4ccccc4F)c(N)c3cc2C1 (stereo not given) shows TGI equal to 0.978

----------
system: SR leukemia; assay: NCI tumour cell line growth inhibition, 48 h
readoutType: TGI

Please review the entries below; each comes with its answer.
molecule	TGI
CCOC(=O)[C@H](CSSc1ncnc2cc[nH]c12)NC(=O)[C@@H](C)c1ccc2cc(OC)ccc2c1	> 100 µM
CCCSc1cc(Cl)c(C)cc1S(=O)(=O)n1cc[nH]c1=O	> 100 µM
COc1ccc(OC)c(/C=C/c2nnc(Nc3ccc(Cl)cc3)o2)c1	> 100 µM
C[C@]12CCC3c4ccc(OC(=O)c5ccccc5)cc4CC[C@H]3C1CC[C@@H]2OC(=O)C12OC1CCC2=O (some centres undefined)	13.5 µM
O=C(O)CN1CCNCCN(CC(=O)O)CC1	> 29.4 µM

Provide TGI values for the following items, in order.
1. CNC(=O)Nc1cc2c3c(c1)CCCN3CCC2
2. Cc1c(O)c(OC2OC(CO)C(O)C(O)C2O)cc2c1CC[C@@H]1C2(C)C(=O)C[C@]2(C)[C@@H]([C@@](C)(O)C(O)/C=C/C(C)(C)O)[C@H](O)C[C@@]12C (some centres undefined)

1. > 10 µM
2. > 100 µM

----------
test system: OVCAR-3 ovarian; experiment: NCI tumour cell line growth inhibition, 48 h
readoutType: TGI

compound	TGI
C[C@]12CCC[C@H](OC=O)C1(O)C[C@H](C(=O)O)CC2 (some centres undefined)	> 100 µM
O=C(OC(C(=O)O)C(OC(=O)c1ccccc1)C(=O)O)c1ccccc1 (centres undefined) (tested in a mixture with another compound)	> 69.1 µM
CCC[CH2][Sn]1([CH2]CCC)[O]C(c2ccccn2)S(=O)(=O)[O]1 (centres undefined)	11.6 µM
COC(=O)c1cc(C)ccc1/C=C1\Cc2cc(C)c(C)cc2C1=O	> 100 µM
COc1ccc(C)c2c1N[C@](C)([C@]1(C)Nc3c(OC)ccc(C)c3C1=O)C2=O	> 100 µM

Provide TGI values for the following items, in order.
1. CCOC(=O)[C@H](CSSc1ncnc2cc[nH]c12)NC(=O)[C@@H](C)c1ccc2cc(OC)ccc2c1
2. NCC(=O)C(O)C(O)C(O)CO (centres undefined)

["> 100 µM", "> 100 µM"]

Provide TGI values for the following items, in order.
1. CC1(C)S[C@@H]2[C@H](NC(=O)CCC[C@@H](N)C(=O)O)C(=O)N2[C@H]1C(=O)O
2. CN1CCC23c4c5ccc(O)c4OC2C(=NN=C2CCC4(O)C6Cc7ccc(O)c8c7C4(CCN6C)C2O8)CCC3(O)C1C5 (centres undefined)

["> 50 µM", "> 100 µM"]
